# measuredOn: T1, Recombinant cynomolgus TfR1, His6-tagged (a.a. 89-760) (cynomolgus, UniProt H9EXL1 89-760 (rhesus entry))
# T1 construct: range 89-760; same product number named for FP and SPR; also called Cyno TfR1; Acro Biosystems TFR-C524a
# measurementDescription: SPR, TfR1 on chip
pKd: −log10 of the molar value. Starred links: 1 amine or outer side, 2 acyl side, 3 side chain; linkers in the order of their positions; H or OH if unused. Positions of bridges follow the written chain, without caps; N, C: chain ends. Non-standard residues stand in square brackets, D forms with d. No end group written: not given here. Fluorescein = fluorescein label on the C-terminal Lys side chain; TATB = O=C(C[*:1])N1CN(C(=O)C[*:2])CN(C(=O)C[*:3])C1; tBuAla = CC(C)(C)C[C@H](N)C(=O)O; 4Pal = N[C@@H](Cc1ccncc1)C(=O)O; Sar = CNCC(=O)O
measurementType: pKd

Observe how each entry below is paired with its result.
                                     binder  valuemeasured
0  ACSPDAYLGC[tBuAla]SYCA (linker 2-10-14 via TATB) [BCY16558]           4.30
1  ACSPDAHLGCIS[4Pal]CA (linker 2-10-14 via TATB) [BCY16032]           4.52
2  TYMNCPPDAHLGCISYCA (linker 5-13-17 via TATB (inferred)) [BCY17117]           6.09
3  ESFCSPDAHLGCISYCA (linker 4-12-16 via TATB) [BCY17113]           5.78
4  ACSPDAHLGCISYCEPW (linker 2-10-14 via TATB (inferred)) [BCY17114]           6.07
5  IDSNCPNDAHLGCISYCA (linker 5-13-17 via TATB (inferred)) [BCY17118]           5.71

a. ACSPDAHLGCISYCPIVH (linker 2-10-14 via TATB (inferred)) [BCY17120]
b. ACSPDAHLGCISYCAXXXXXXK (3 Cys on TATB; [Sar6]; C-terminal Lys carries fluorescein) [BCY15768]
c. ACSPDAHAGCISYCAXXXXXXK (3 Cys on TATB; [Sar6]; C-terminal Lys carries fluorescein) [BCY15774]
d. ACAPDAHLGCISYCA[Sar][Sar][Sar][Sar][Sar][Sar]K(Fluorescein) (linker 2-10-14 via TATB) [BCY15769]
Given 4 binders, produce a descending ranking by pKd. Form entry: ranked labels (order as requested). a, d, b, c
(a: 5.90, d: 5.66, b: 5.42, c: 4.39)
